System: SK-BR3 (HER2 positive)
procedure_text: In vitro cytotoxicity evaluation (cell proliferation inhibition, SRB dye)
Type: cell-based, human
details: SK-BR3 cells, SRB viable cell count; no 144 h footnote (168-hour treatment group)
Non-standard residues stand in square brackets, D forms with d. Residues, ends and D or L forms follow the SMILES beside them. *: point of attachment. Dolaproine = CO[C@@H]([C@@H]1CCCN1)[C@@H](C)C(=O)O; Dil = CC[C@H](C)[C@H](NC)[C@@H](CC(=O)O)OC; X1 = C[C@@H](N*)[C@@H](O)c1ccccc1; NMeV = CN[C@H](C(=O)O)C(C)C
endpoint_label: CC50 (nM)
Output spec: scalar in nM, unitless text.

query: Give recorded CC50 with SK-BR3 (HER2 positive) for the following compound: CC[C@H](C)[C@@H]([C@@H](CC(=O)N1CCC[C@H]1[C@H](OC)[C@@H](C)C(=O)N[C@H](C)[C@@H](O)c1ccccc1)OC)N(C)C(=O)[C@@H](NC(=O)[C@@H](NC)C(C)C)C(C)C [MMAE, monomethyl auristatin E] (H-[NMeV]V[Dil][Dolaproine]-X1)
result: 0.12
